Measured pKb accompanies every entry in the list below.
Target: UniProt P35367
Sequence (P35367 whole entry): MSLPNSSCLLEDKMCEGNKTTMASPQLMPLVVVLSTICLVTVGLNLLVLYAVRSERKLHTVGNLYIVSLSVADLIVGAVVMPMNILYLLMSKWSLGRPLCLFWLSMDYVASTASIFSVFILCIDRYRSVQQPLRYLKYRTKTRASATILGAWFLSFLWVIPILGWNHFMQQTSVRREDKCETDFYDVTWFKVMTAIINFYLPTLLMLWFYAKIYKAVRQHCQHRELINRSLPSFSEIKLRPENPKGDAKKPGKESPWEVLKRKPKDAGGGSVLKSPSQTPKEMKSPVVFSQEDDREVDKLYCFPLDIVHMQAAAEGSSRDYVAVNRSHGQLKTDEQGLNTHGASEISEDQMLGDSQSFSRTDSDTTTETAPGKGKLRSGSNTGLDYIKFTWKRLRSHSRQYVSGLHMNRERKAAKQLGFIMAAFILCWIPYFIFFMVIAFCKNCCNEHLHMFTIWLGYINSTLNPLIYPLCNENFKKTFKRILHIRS
Experiment: Binding affinity to human H1R expressed in CHO cells using Fluo-4AM as substrate incubated for 1 hrs by calcium mobilization assay based fluorometric analysis
Type: cell-based
Details: filed as antagonist
Square brackets hold non-standard residues; d marks the D form. Peptide text beside a SMILES is read from it. * marks the point of attachment. X1 = O=C(COc1ccc(/C=C/C2=[N+]3C(=Cc4ccc(-c5cccs5)n4[B-]3(F)F)C=C2)cc1)*; Propanoyl(3-Pip(4-O-2-BnPh)) = O=C(CCN1CCC(Oc2ccccc2Cc2ccccc2)CC1)*; X2 = O=C(CCC1=[N+]2C(=Cc3ccc(-c4cccs4)n3[B-]2(F)F)C=C1)*; βAla = NCCC(=O)O
measurementType: pKb

INSERT INTO results (molecule, number) VALUES
  ('CC(C)[C@H](NC(=O)CCN1CCC(Oc2ccccc2Cc2ccccc2)CC1)C(=O)N[C@@H](CO)C(=O)N[C@@H](CC(N)=O)C(=O)NCCC(=O)N[C@@H](CCCCNC(=O)CCC1=[N+]2C(=Cc3ccc(-c4cccs4)n3[B-]2(F)F)C=C1)C(N)=O ({Propanoyl(3-Pip(4-O-2-BnPh))}-VSN[βAla]K(X2)-NH2)', 6.52),
  ('C[C@H](NC(=O)[C@H](C)NC(=O)[C@H](Cc1ccccc1)NC(=O)CCN1CCC(Oc2ccccc2Cc2ccccc2)CC1)C(=O)NCCC(=O)N[C@@H](CCCCNC(=O)COc1ccc(/C=C/C2=[N+]3C(=Cc4ccc(-c5cccs5)n4[B-]3(F)F)C=C2)cc1)C(N)=O ({Propanoyl(3-Pip(4-O-2-BnPh))}-FAA[βAla]K(X1)-NH2)', 8.59),
  ('CC(C)[C@H](NC(=O)CCN1CCC(Oc2ccccc2Cc2ccccc2)CC1)C(=O)N[C@@H](CO)C(=O)N[C@@H](CC(N)=O)C(=O)NCCC(=O)N[C@@H](CCCCNC(=O)COc1ccc(/C=C/C2=[N+]3C(=Cc4ccc(-c5cccs5)n4[B-]3(F)F)C=C2)cc1)C(N)=O ({Propanoyl(3-Pip(4-O-2-BnPh))}-VSN[βAla]K(X1)-NH2)', 8.56),
  ('C[C@H](NC(=O)[C@H](C)NC(=O)[C@H](Cc1ccccc1)NC(=O)CCN1CCC(Oc2ccccc2Cc2ccccc2)CC1)C(=O)NCCC(=O)N[C@@H](CCCCNC(=O)CCCCC[N+]1=C(/C=C/C=C/C=C2/N(C)c3ccc(S(=O)(=O)[O-])cc3C2(C)C)C(C)(C)c2cc(S(=O)(=O)O)ccc21)C(N)=O', 6.09);
